# study system: UniProtKB P08173
# Sequence (P08173 whole entry): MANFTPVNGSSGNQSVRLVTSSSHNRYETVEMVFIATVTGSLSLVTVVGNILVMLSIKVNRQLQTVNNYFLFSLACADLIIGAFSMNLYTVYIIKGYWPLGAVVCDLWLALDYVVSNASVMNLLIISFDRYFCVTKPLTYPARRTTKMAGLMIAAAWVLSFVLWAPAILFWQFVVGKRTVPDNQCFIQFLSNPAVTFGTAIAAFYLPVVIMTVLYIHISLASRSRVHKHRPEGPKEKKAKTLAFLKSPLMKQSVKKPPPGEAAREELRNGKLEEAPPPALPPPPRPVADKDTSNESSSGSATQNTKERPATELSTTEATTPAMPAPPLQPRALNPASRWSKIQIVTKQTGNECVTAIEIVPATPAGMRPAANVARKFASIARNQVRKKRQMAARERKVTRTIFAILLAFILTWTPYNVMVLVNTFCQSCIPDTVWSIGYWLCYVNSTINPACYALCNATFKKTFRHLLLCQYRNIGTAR
# experiment: Radioligand (tritiated N-methylscopolamine) binding assay, M4
# test settings: Ki against the M4 receptor; membranes from CHO cells expressing human M4; tritiated N-methylscopolamine 1.5 nM; read-out: Ki
measurement name: Ki

Task: // Ki lookup, key: Cc1c(C(=O)NCCC2CCN(Cc3ccccc3)CC2)cnc2cc(-c3ccc(OC(F)(F)F)cc3)nn12
Output: 10 to 100 nM

Task: // Ki lookup, key: C[C@@H]1CN(c2ncc(F)c(Cl)n2)CCN1C(=O)NCCC1CCN(Cc2ccccc2)CC1
Output: 100 to 1000 nM

Task: // Ki lookup, key: C[C@@H]1CN(c2cc(F)c(F)c(F)c2)CCN1C(=O)NCCC1CCN(Cc2ccc(F)cc2)CC1
Output: < 10 nM

Task: // Ki lookup, key: C[C@@H]1CN(c2ncc(F)cc2F)CCN1C(=O)NCCC1CCN(Cc2ccccc2)CC1
Output: 10 to 100 nM

Task: // Ki lookup, key: C[C@@H]1CN(c2ccc(Cl)c(F)c2)CCN1C(=O)NCCC1CCN(Cc2ccccc2)CC1
Output: < 10 nM

Task: // Ki lookup, key: O=C(NCCC1CCN(Cc2ccc(O)cc2)CC1)C1CCN(c2ccc(OC(F)(F)F)cc2)CC1
Output: 10 to 100 nM

Task: // Ki lookup, key: O=C(NCCC1CCN(Cc2ccccc2)CC1CO)C1CCN(c2ccc(OC(F)(F)F)cc2)CC1 (centres unmarked)
Output: < 10 nM

Now turn to the next compound.
Task: // Ki lookup, key: CC(C)NC(=O)c1cnc(N2CCN(C(=O)NCCC3CCN(Cc4ccccc4)CC3)[C@H](C)C2)nc1
Output: 100 to 1000 nM
